Assay: In vivo plasma half-life by EPR, co-administration of 14N E-TOPS and 15N Tempol
Details: mouse, in vivo, ip, 80 mg/kg

{"Structure string": "CC1(C)CC(O)CC(C)(C)N1[O]", "half-life": "> 40 min"}
